# protocol: Components of the Cytosolic LPS Sensing Pathway: Gene Identification via Genome-wide siRNA Screen
# condition: RAW264.7 macrophages, IL-1a HTRF, actives lie on both sides, screened at 100 nM (by protocol), cells primed 5 h with Pam3CSK4 first
In all, about 53,000 sequences went through this assay and about 3,700 (7%) were called active.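 How the source made its calls: active means gene knockdowns whose robust z-score for IL-1 alpha signal is at least 2 or at most -2, so actives lie on both sides; inactive means the rest.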 This excerpt belongs to a sample that is enriched for actives.
Labels: active, inactive

item_sequence: GGUCUUUGUGUCCACCUACTT against Gpr162
answer_label: inactive
//
item_sequence: GCUUUUCCGUGAUCAUACATT against Tex14
answer_label: inactive
//
item_sequence: GGCCAGAGGACUAUGUUAUTT against C1s2
answer_label: inactive
//
item_sequence: GCUCAUUGCACUAAAAGACTT against Tnnt1
answer_label: inactive
//
item_sequence: GCGAGCCAAGUUUGAACUUTT against Elovl6
answer_label: inactive
//
item_sequence: CGGCUGCAUUUCAACAAGGTT against Snrpc
answer_label: inactive
//
item_sequence: GGAACGUGGAUCUUUUUAUTT against Wiz
answer_label: active
//
item_sequence: GGUUUAUGCAAUGAAGCUUTT against Rock2
answer_label: inactive
//
item_sequence: GGGUGAAGGUGAAUAUUUATT against Esm1
answer_label: inactive
//
item_sequence: GGAAGACAACUGAACAUUUTT against Ralgds
answer_label: inactive
//
item_sequence: CCUUUGCCUUCAGUUUUAUTT against Pramel20
answer_label: inactive
//
item_sequence: CCUUCGUAGUCUUGAUGUGTT against Olfr1179
answer_label: inactive
